# target under test: kappa-opioid receptors (KOR) (Homo sapiens, UniProt P41145)
# Sequence (P41145 whole entry): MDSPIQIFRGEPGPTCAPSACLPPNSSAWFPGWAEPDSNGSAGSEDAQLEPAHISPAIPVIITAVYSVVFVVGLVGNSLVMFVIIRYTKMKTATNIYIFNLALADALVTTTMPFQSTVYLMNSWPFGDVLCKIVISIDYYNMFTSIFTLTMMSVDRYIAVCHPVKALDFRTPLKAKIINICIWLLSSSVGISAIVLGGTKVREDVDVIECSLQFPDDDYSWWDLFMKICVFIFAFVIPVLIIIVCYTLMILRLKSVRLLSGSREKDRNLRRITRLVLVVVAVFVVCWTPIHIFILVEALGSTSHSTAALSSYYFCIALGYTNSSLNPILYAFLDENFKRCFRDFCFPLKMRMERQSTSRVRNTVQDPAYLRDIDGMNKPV

compound	display unit	Ki
COC(=O)C1=CC23CCCCC2[C@H]2C[C@@H](C4CCCC(C)N4)C(C)(O3)[C@@H]12 (single isomer, unassigned)	nM	1100

---

# target under test: KOR (Homo sapiens, UniProt P41145)
# assay protocol: KOR cAMP inhibition screening, agonist mode
# applied conditions: read-out: Agonist Emax (% U69,593), KOR cAMP, agonist mode

compound	display unit	Emax
CC1CCCC(C2CC3C4CCCCC45C=C(C4=NCCO4)C4C2(C)OC345)N1C (stereo not shown)	%	4
COCC(=O)C1=CC23CCCCC2C2CC(C4CCCC(C)N4C)C4(C)OC23C14 (stereo not shown)	%	10
CC1CCCC(C2CC3C4CCCCC45C=C(C#N)C4C2(C)OC345)N1C (stereo not shown)	%	8
COC(=O)C1CC23CCCCC2C2CC(C4CCCC(C)N4)C4(C)OC23C14 (stereo not shown) [drawing 153]	%	13
C=CCN1C(C)CCCC1C1CC2C3CCCCC34C=C(C(=O)OC)C3C1(C)OC234 (stereo not shown)	%	2
COC1CC23CCCCC2C2CC(c4cccc(C)n4)C4(C)OC23C14 (stereo not shown)	%	5
CC(=O)C1=CC23CCCCC2C2CC(C4CCCC(C)N4C)C4(C)OC23C14 (stereo not shown)	%	12
